- Test system: K-12 cells
- procedure-details: Cell proliferation of tumor cell line K-12
- Type: cell-based
- experimental-setup: K12, read-out: Concentration of 27-Hydroxycholesterol Yielding 50% Growth Inhibition; K-12 cells (adenocarcinoma line)
measured-endpoint: IC50 (µM)
One number for each entry, in µM.

Log: K-12 cells, molecule C[C@@H](CO)CCC[C@@H](C)[C@H]1CC[C@H]2[C@@H]3CC=C4C[C@@H](O)CC[C@]4(C)[C@H]3CC[C@]12C [27-hydroxycholesterol, cholest-5-ene-3β, 27-diol] , IC50 = 3.7

====

- Tested on: L1210 cells
- procedure-details: Cell proliferation of tumor cell line L1210
- Assay type: cell-based
- experimental-setup: read-out: Concentration of 27-Hydroxycholesterol Yielding 50% Growth Inhibition; L1210 cells (mouse leukemia cell line)
measured-endpoint: pIC50
One number for each entry, as −log10 of the molar value.

Log: L1210 cells, compound C[C@@H](CO)CCC[C@@H](C)[C@H]1CC[C@H]2[C@@H]3CC=C4C[C@@H](O)CC[C@]4(C)[C@H]3CC[C@]12C [27-hydroxycholesterol, cholest-5-ene-3β, 27-diol] , pIC50 = 5.92
